- Test system: LASCPC-01
- experiment.notes: cell viability relative to DMSO control (fraction); higher = less growth inhibition (more viable cells)
- condition.notes: 2 µM; 72 h
Where a name gives a salt, the structure may show the parent alone.
endpoint.name: cell viability
Give bare numbers.

Use these answered entries as a reference point.
compound: C=CCc1ccccc1OCC(O)CNC(C)C (stereo not given)
endpoint.name: cell viability
numeric.result: 1.03

compound: O=c1ccc2ccc(OCCCCN3CCN(c4cccc5sccc45)CC3)cc2[nH]1
endpoint.name: cell viability
numeric.result: 1.01

Return reported cell viability values for all items listed beneath this line.
1. O=C1Cc2cc(CCN3CCN(c4nsc5ccccc45)CC3)c(Cl)cc2N1
2. CNCC[C@H](Oc1cccc2ccccc12)c1cccs1 [Duloxetine HCl]
3. CNc1nn2c(C)c(N(C)C)c(C)nc2c1S(=O)(=O)c1ccccc1

0.987
1.13
0.978

###

- Tested on: LASCPC-01
- experiment.notes: cell viability relative to DMSO control (fraction); higher = less growth inhibition (more viable cells)
- condition.notes: 2 µM; 72 h
Structures can show the parent of a compound that is named as a salt.
I'd be grateful if you could share measured cell viability for these entries.
Numbers only.

Use these answered entries as a reference point.
compound: CC(CN(C)C)CN1c2ccccc2CCc2ccccc21 (configuration not stated) [Trimipramine maleate]
cell viability: 1.01
--
compound: N=C(N)NC(=N)Nc1ccccc1 [Phenylbiguanide]
cell viability: 0.637
--
compound: COc1cc2c(cc1OC)[C@@H]1Cc3ccc(OC)c(OC)c3CN1CC2
cell viability: 1.05
--
compound: C=C1C(=O)O[C@H]2[C@H]1CC/C(C)=C/CC[C@@]1(C)O[C@@H]21 [Parthenolide]
cell viability: 0.323
--
compound: CN1CCC(c2c[nH]c3ccc(NC(=O)c4ccc(F)cc4)cc23)CC1
cell viability: 0.954

Return reported cell viability values for all items listed beneath this line.
1. CN1CCCCC1CCN1c2ccccc2Sc2ccc([S+](C)[O-])cc21 (configuration not stated) [Mesoridazine Besylate]
2. CN1CCC(=C2c3ccccc3C=Cc3ccccc32)CC1 [Cyproheptadine hydrochloride]

1. 1.07
2. 1.14

Return reported cell viability values for all items listed beneath this line.
1. COc1ccc(NC(=O)c2ccc(-c3ccc(-c4noc(C)n4)cc3C)cc2)cc1N1CCN(C)CC1
2. O=C(CCCCCN1CCN(c2ccccc2-c2ccccc2)CC1)NC1CCCc2ccccc21 (configuration not stated) [LP 12 hydrochloride hydrate]
3. CSc1ccc2c(c1)C(N1CCN(C)CC1)Cc1ccccc1S2 (configuration not stated) [Methiothepin mesylate]
4. CC(CN1c2ccccc2Sc2ccccc21)N(C)C (configuration not stated)
5. CCOc1cc(N)c(Cl)cc1C(=O)NCC1CN(Cc2ccc(F)cc2)CCO1 (configuration not stated) [Mosapride Citrate]
6. CC(C)COc1ccc(CNC(=O)N(Cc2ccc(F)cc2)C2CCN(C)CC2)cc1 [Pimavanserin tartrate]

1: 0.512; 2: 0.972; 3: 1.03; 4: 1.11; 5: 0.912; 6: 0.514

Return reported cell viability values for all items listed beneath this line.
1. N[C@@H](Cc1c[nH]c2ccccc12)C(=O)O
2. CN(C)CCCc1cc(C(=O)Nc2ccc(-c3ccncc3)cc2)ccc1O
3. CNCCC(Oc1ccc(C(F)(F)F)cc1)c1ccccc1 (configuration not stated) [Fluoxetine HCl]
4. O=C1[C@@H]2[C@H]3CC[C@H](C3)[C@@H]2C(=O)N1CCCCN1CCN(c2ncccn2)CC1 [Tandospirone citrate]

0.904
0.993
1.02
0.477
